assay name: Pharmacokinetics and oral bioavailability after single oral administration (30 mg/kg), plasma LC-MS/MS
Type: in vivo, Female Sprague Dawley rats
experimental conditions: female, Sprague-Dawley, rat, plasma, po, 30 mg/kg, plasma analyte after [6]-shogaol p.o. 30 mg/kg, median [IQR]
attribute measured: Tmax (min)
Answer format: numeric, min implied, no suffix.

Query: What value of measured Tmax is listed for CCCCC/C=C/C(=O)CCc1ccc(O)c(OC)c1 [[6]-shogaol] ?
Reply: 45

###

assay name: Pharmacokinetics and oral bioavailability after single oral administration (30 mg/kg), plasma LC-MS/MS
Assay type: in vivo, Female Sprague Dawley rats
experimental conditions: female, Sprague-Dawley, rat, po; plasma analyte after zingerone p.o. 30 mg/kg, mean ± SD n=6
attribute measured: Cmax (ng/mL)
Dear colleague, please return just the value in ng/mL, with no unit written.

Query: Need Cmax, item COc1cc(CCC(C)=O)ccc1O [zingerone, 4-(4-hydroxy-3-methoxyphenyl)-2-butanone]
Reply: 1870

###

assay name: Percent recovery in urine and feces after intravenous or oral administration
Type: in vivo, Female Sprague Dawley rats
experimental conditions: female, Sprague Dawley, rat, urine, iv, 3 mg/kg, intravenous administration 3 mg/kg of parent compound, % of administered dose; read-out: % Recovery excretion, urine T 24–48 h
attribute measured: dose excreted

Reference set (2 entries):
CCCCC[C@H](O)CC(=O)CCc1ccc(O)c(OC)c1 [[6]-gingerol] :: 0.008%
COc1cc(CCC(C)=O)ccc1O [zingerone, 4-(4-hydroxy-3-methoxyphenyl)-2-butanone] :: < 0.001%

Next:
Query: # dose excreted lookup, item CCCCC/C=C/C(=O)CCc1ccc(O)c(OC)c1 [[6]-shogaol]
Reply: < 0.001%

###

assay name: Pharmacokinetics and oral bioavailability after single oral administration (30 mg/kg), plasma LC-MS/MS
Format: in vivo, Female Sprague Dawley rats
experimental conditions: female, Sprague-Dawley, rat, plasma, po, 30 mg/kg, plasma analyte after [6]-shogaol p.o. 30 mg/kg, mean ± SD n=6; read-out: AUC(0-t)
attribute measured: AUC(0-t) (ng·h/mL)
Write it as a number; the unit ng·h/mL goes unstated.

Query: Item CCCCC/C=C/C(=O)CCc1ccc(O)c(OC)c1 [[6]-shogaol] has what recorded AUC(0-t)?
Reply: 66.9

###

Quick reference for dose excreted among some molecules
assay name: Percent recovery in urine and feces after intravenous or oral administration
Format: in vivo, Female Sprague Dawley rats
experimental conditions: female, Sprague Dawley, rat, feces, iv, 3 mg/kg, intravenous administration 3 mg/kg of parent compound, % of administered dose; read-out: % Recovery excretion, feces T 0–24 h

CCCCC[C@H](O)CC(=O)CCc1ccc(O)c(OC)c1 [[6]-gingerol] :: 0.005%

Query: dose excreted for COc1cc(CCC(C)=O)ccc1O [zingerone, 4-(4-hydroxy-3-methoxyphenyl)-2-butanone] ?
Reply: 0.049%

Query: Entry CCCCC/C=C/C(=O)CCc1ccc(O)c(OC)c1 [[6]-shogaol] please
Reply: < 0.001%

###

assay name: Percent recovery in urine and feces after intravenous or oral administration
Format: in vivo, Female Sprague Dawley rats
experimental conditions: female, Sprague Dawley, rat, urine, po, 30 mg/kg, oral administration 30 mg/kg of parent compound, % of administered dose; read-out: % Recovery excretion, urine T 24–48 h
Below, each of the compounds is paired with its reported dose excreted value.

CCCCC/C=C/C(=O)CCc1ccc(O)c(OC)c1 [[6]-shogaol] :: < 0.001%
CCCCC[C@H](O)CC(=O)CCc1ccc(O)c(OC)c1 [[6]-gingerol] :: 0.002%

Proceed to the following item.
Query: Which value of dose excreted has been reported for COc1cc(CCC(C)=O)ccc1O [zingerone, 4-(4-hydroxy-3-methoxyphenyl)-2-butanone] in the records?
Reply: < 0.001%

###

assay name: Pharmacokinetics and oral bioavailability after single oral administration (30 mg/kg), plasma LC-MS/MS
Format: in vivo, Female Sprague Dawley rats
experimental conditions: female, Sprague-Dawley, rat, plasma, po, 30 mg/kg, plasma analyte after [6]-gingerol p.o. 30 mg/kg, median [IQR]
attribute measured: Tmax (min)
I only need the number, in min, no unit after it.

Some solved cases for reference:
CCCCC/C=C/C(=O)CCc1ccc(O)c(OC)c1 [[6]-shogaol] :: 15
COc1cc(CCC(C)=O)ccc1O [zingerone, 4-(4-hydroxy-3-methoxyphenyl)-2-butanone] :: 15

Query: Recorded Tmax of CCCCC[C@H](O)CC(=O)CCc1ccc(O)c(OC)c1 [[6]-gingerol] , please.
Reply: 4.8

###

In this section, each of the compounds is paired with its reported AUC(0-t).
assay name: Pharmacokinetics and oral bioavailability after single oral administration (30 mg/kg), plasma LC-MS/MS
Format: in vivo, Female Sprague Dawley rats
experimental conditions: female, Sprague-Dawley, rat, plasma, po, 30 mg/kg, plasma analyte after [6]-gingerol p.o. 30 mg/kg, mean ± SD n=6; read-out: AUC(0-t)
Entry rule: numbers only, all in ng·h/mL.

Completed entries (count: 2):
CCCCC[C@H](O)CC(=O)CCc1ccc(O)c(OC)c1 [[6]-gingerol] :: 92.1
COc1cc(CCC(C)=O)ccc1O [zingerone, 4-(4-hydroxy-3-methoxyphenyl)-2-butanone] :: 28

# input for lookup
Query: Give its AUC(0-t) value. Item: CCCCC/C=C/C(=O)CCc1ccc(O)c(OC)c1 [[6]-shogaol]
Reply: 10.2

###

assay name: Pharmacokinetics and oral bioavailability after single oral administration (30 mg/kg), plasma LC-MS/MS
Assay type: in vivo, Female Sprague Dawley rats
experimental conditions: female, Sprague-Dawley, rat, plasma, po, 30 mg/kg, p.o. 30 mg/kg vs i.v. 3 mg/kg of the pure compound, range among rats; read-out: %Oral bioavailability (range)
attribute measured: bioavailability

Consider the worked cases shown below.
COc1cc(CCC(C)=O)ccc1O [zingerone, 4-(4-hydroxy-3-methoxyphenyl)-2-butanone] :: 0.32 to 1.6%
CCCCC[C@H](O)CC(=O)CCc1ccc(O)c(OC)c1 [[6]-gingerol] :: 0.1 to 0.4%

Query: Consider the compound CCCCC/C=C/C(=O)CCc1ccc(O)c(OC)c1 [[6]-shogaol] and give its measured bioavailability.
Reply: 0.1 to 0.31%

###

assay name: Interconversion clearance between 6G and 6S after intravenous administration
Type: in vivo, Female Sprague Dawley rats
experimental conditions: female, Sprague-Dawley, rat, plasma, iv; single i.v. 3 mg/kg; read-out: CL10 (irreversible elimination clearance of 6G) (converted)
attribute measured: clearance (mL/min/kg)
Write the value in mL/min/kg as a bare number.

Query: What does the record list as clearance for CCCCC[C@H](O)CC(=O)CCc1ccc(O)c(OC)c1 [[6]-gingerol] ?
Reply: 8.67

###

assay name: Pharmacokinetics after single intravenous administration (3 mg/kg), plasma LC-MS/MS
Assay type: in vivo, Female Sprague Dawley rats
experimental conditions: female, Sprague-Dawley, rat, iv; plasma analyte after zingerone i.v. 3 mg/kg, mean ± SD n=6
attribute measured: AUC(0-inf) (ng·h/mL)
Supply the numeric figure in ng·h/mL, leaving out any unit text.

Query: Can you look up the measured AUC(0-inf) of COc1cc(CCC(C)=O)ccc1O [zingerone, 4-(4-hydroxy-3-methoxyphenyl)-2-butanone] for me?
Reply: 12600

###

assay name: Percent recovery in urine and feces after intravenous or oral administration
Format: in vivo, Female Sprague Dawley rats
experimental conditions: female, Sprague Dawley, rat, feces, iv, 3 mg/kg, intravenous administration 3 mg/kg of parent compound, % of administered dose; read-out: % Recovery excretion, feces T 24–48 h
# dose excreted annotations
Express it in %; write the number only.

COc1cc(CCC(C)=O)ccc1O [zingerone, 4-(4-hydroxy-3-methoxyphenyl)-2-butanone] :: 0.002

Could you now look at the following compound, please?
Query: # get_value(readout='dose excreted', item= CCCCC[C@H](O)CC(=O)CCc1ccc(O)c(OC)c1 [[6]-gingerol] )
Reply: 0.005

###

assay name: Pharmacokinetics and oral bioavailability after single oral administration (30 mg/kg), plasma LC-MS/MS
Type: in vivo, Female Sprague Dawley rats
experimental conditions: female, Sprague-Dawley, rat, plasma, po, 30 mg/kg, p.o. 30 mg/kg vs i.v. 3 mg/kg of the pure compound, mean ± SD n=6; read-out: %Oral bioavailability
Listed next: entries and their corresponding bioavailability.
Write the value in % as a bare number.

COc1cc(CCC(C)=O)ccc1O [zingerone, 4-(4-hydroxy-3-methoxyphenyl)-2-butanone] :: 0.75

Query: Given the compound CCCCC/C=C/C(=O)CCc1ccc(O)c(OC)c1 [[6]-shogaol] , what is its reported bioavailability?
Reply: 0.15

Query: What about CCCCC[C@H](O)CC(=O)CCc1ccc(O)c(OC)c1 [[6]-gingerol] ?
Reply: 0.17

###

assay name: Pharmacokinetics and oral bioavailability after single oral administration (30 mg/kg), plasma LC-MS/MS
Type: in vivo, Female Sprague Dawley rats
experimental conditions: female, Sprague-Dawley, rat, plasma, po, 30 mg/kg, plasma analyte after zingerone p.o. 30 mg/kg, mean ± SD n=6; read-out: AUC(0-t)
attribute measured: AUC(0-t) (ng·h/mL)
Please reply with the bare figure in ng·h/mL and do not write the unit itself.

Query: # AUC(0-t) lookup, item COc1cc(CCC(C)=O)ccc1O [zingerone, 4-(4-hydroxy-3-methoxyphenyl)-2-butanone]
Reply: 944
